Test system: Pseudomonas aeruginosa
Assay: Antimicrobial activity against Pseudomonas aeruginosa 1951-00
Assay type: functional
Recorded measurements of MIC90, one per entry

Past entries and their recorded results:
Compound Structure String	Endpoint Result
C[C@@H](O)[C@H]1C(=O)N2C(C(=O)O)=C(S[C@@H]3CN[C@H](C(=O)N(C)C)C3)[C@H](C)[C@H]12	0.06 µg/mL
C[C@H]1[C@H](NC(=O)/C(=N\OC(C)(C)C(=O)O)c2csc(N)n2)C(=O)N1C(=O)NS(=O)(=O)n1nc(-c2cc(=O)c(O)c[nH]2)n(C[C@@H](O)CO)c1=O	0.125 µg/mL
CC1(C)[C@H](NC(=O)/C(=N\OCc2cc(=O)c(O)cn2O)c2csc(N)n2)C(=O)N1OS(=O)(=O)O	1 µg/mL
CC(C)(O/N=C(\C(=O)N[C@H]1CN(C(=O)NS(=O)(=O)n2nc(-c3cc(=O)c(O)c[nH]3)n(C[C@@H](O)CO)c2=O)C1=O)c1csc(N)n1)C(=O)O	0.25 µg/mL

**Q:** Could you please provide reported MIC90 for "C[C@H](O)Cn1c(-c2cc(=O)c(O)c[nH]2)nn(S(=O)(=O)NC(=O)N2C(=O)[C@@H](NC(=O)/C(=N\OC(C)(C)C(=O)O)c3csc(N)n3)[C@@H]2C)c1=O" ? Thanks!
**A:** 0.25 µg/mL

**Q:** Could you please provide reported MIC90 for "C[C@H]1[C@H](NC(=O)/C(=N\OC(C)(C)C(=O)O)c2csc(N)n2)C(=O)N1C(=O)NS(=O)(=O)n1nc(-c2cc(=O)c(O)c[nH]2)n(CC(N)=O)c1=O" ? Thanks!
**A:** 0.25 µg/mL

**Q:** Could you please provide reported MIC90 for "C[C@H]1[C@H](NC(=O)/C(=N\OC(C)(C)C(=O)O)c2csc(N)n2)C(=O)N1C(=O)NS(=O)(=O)n1nc(-c2cc(=O)c(O)c[nH]2)n(C)c1=O" ? Thanks!
**A:** 0.5 µg/mL
